Values compiled from paper PMC7913237.

Tested on: HIV-1 (NL4-3 strain) p24 antigen production
assayProcedure: microbe, parasite or virus in culture
Format: cell-based
particulars: Human immunodeficiency virus 1, NL43, MT4, read-out: p24 ELISA EC50, 50% inhibition of viral p24 antigen production in NL4-3 strain-infected MT-4 cells
Procedure: For virus preparation, 293T/17 cells (Invitrogen), which are maintained in Dulbecco’s modified Eagle medium (DMEM) containing 10% FBS, in a T-75 flask were transfected with 10 μg of the pNL4-3 construct by the calcium phosphate method. […] Inhibitory activities of test compounds against X4-HIV-1 (NL4-3 strain)-induced cytopathogenicity in MT-4 cells, which are maintained in RPMI-1640 containing 10% FBS, were assessed by the MTT assay. […]
Field: EC50. Provide a value for each of the compounds that follow.

Item: `CSCC[C@H](C)OC(=O)[C@@H](N)c1ccccc1-c1c[nH]c2ccccc12` | System: HIV-1 (NL4-3 strain) p24 antigen production | EC50: 14 µM

Item: c1cc(CN2CCCNCCNCCCNCC2)ccc1CN1CCCNCCNCCCNCC1 [AMD3100, reference compound] | System: HIV-1 (NL4-3 strain) p24 antigen production | EC50: 0.029 µM

Item: `CSCC[C@@H](C)OC(=O)[C@@H](N)c1ccccc1-c1c[nH]c2ccccc12` | System: HIV-1 (NL4-3 strain) p24 antigen production | EC50: 22 µM
